Record form. Attribute: pH 7 solubility. Fill in for each entry.
- protocol.notes: Kinetic solubility analysis (CLND: total chemiluminescent nitrogen determination)
- measurement.parameters: 1×PBS buffer (pH 7.4), 1.0% DMSO, 24-hour incubation at ambient temperature, maximum theoretical concentration 100 μM
Give bare numbers, in μM.

CC(C)(C#Cc1ccc(-c2ccc(Cl)c3c(N(C(=O)N4CCC[C@H]4C(=O)OCOP(=O)(O)O)S(C)(=O)=O)nn(CC(F)(F)F)c23)c([C@H](Cc2cc(F)cc(F)c2)NC(=O)Cn2nc(C(F)(F)F)c3c2C(F)(F)[C@@H]2C[C@H]32)n1)S(C)(=O)=O 68

Continue with the next compound.
# lookup: pH 7 solubility of CN1CCN(C(=O)N(c2nn(CC(F)(F)F)c3c(-c4ccc(C#CC(C)(C)S(C)(=O)=O)nc4[C@H](Cc4cc(F)cc(F)c4)NC(=O)Cn4nc(C(F)(F)F)c5c4C(F)(F)[C@@H]4C[C@H]54)ccc(Cl)c23)S(C)(=O)=O)CC1
1
